TEST DETAILS: soluble fraction after stress (log2 fold change); higher = more stays soluble; pooled small domains, quantitative proteomics
EXPERIMENTAL SETUP: stress: 50 degC
PARAMETER MEASURED: soluble fraction (log2)

INSERT INTO assay_data (sequence_data, parameter_measured, result_value) VALUES
  ('HMSMPDERMLTSWMMARVKAAGKTMTRDAWNEFFERSNDSMDHMDMEMEKLLSYVYDKDGITLEDVEA', 'soluble fraction (log2)', -0.394),
  ('HMPDAGQRRYLELVTALAGARSLTIDDLERRAIRFAEWGNGYSGRTARQFIDTLLQDRGVAEEL', 'soluble fraction (log2)', -0.405),
  ('HMDKSLDFASIKSVEIATGRKFGWHALKKWSKSNSSEIKTIPDPNFGEVKTYHKDAWLAVYNINLSPILD', 'soluble fraction (log2)', -0.404);

----------
TEST DETAILS: soluble fraction after stress (log2 fold change); higher = more stays soluble; pooled small domains, quantitative proteomics
EXPERIMENTAL SETUP: stress: 50 degC
Recorded soluble fraction (log2), one value per entry.
PARAMETER MEASURED: soluble fraction (log2)

INSERT INTO results (sequence_data, parameter_measured, result_value) VALUES
  ('HMNNTIKFSVDSQNSGKRLDIFLTENIKNYTRSFLKKLIENRQVKLNNNFIISPSERVKFKDQININILQ', 'soluble fraction (log2)', -1.17),
  ('HMQKIEKVDYGTFLKMIENGEIDQVNLTEKKISFTTDKDAETVYETGRVEDPNIVDRLYQADVEFTQEI', 'soluble fraction (log2)', 0.207),
  ('HMAMNITQRHQEILAVIKQEKHITVSEISKLLGVSEVTIRKDFNYLEEKNLIYRHHGGASLNN', 'soluble fraction (log2)', -1.58),
  ('HMATEYIIPTVTNKKLEEAIGIAQLRGFEISVDEYKPSDIDEGTVLEQSPAAGTNAKQGDTISVTVSSG', 'soluble fraction (log2)', 0.294),
  ('HMRLLGEPLAGRLKKDVPVVTGRSTESKAIAQFFELRWSHLPDPEARTISVASGRIDFMDVGATRFSLR', 'soluble fraction (log2)', 0.054),
  ('HMPHITDAEWEVMRVVWANHHVTSKEVISILEDKMNWKATTIKTLLGRLVEKGALSTEQDGKKFIYTAR', 'soluble fraction (log2)', -1.5),
  ('HMISESIPAKDALLRLLNTAYQTRTNAAGEFYFNDVPPGKYILQASVNDVEIIRENISINEN', 'soluble fraction (log2)', -0.249),
  ('HMTKTEFLEALRRALNGNMAAASVEDNLKFYENYFYSEEAKGRSEAAVLSELGDPRILARTLIDAAER', 'soluble fraction (log2)', 0.0765),
  ('HMVKNYYEILEVDKKASPEVIEKAYKTLAKKYHPDLQEAENNGQYEEKMKEINEAYSVLSDEFKRRTYDEQ', 'soluble fraction (log2)', 0.114),
  ('HMNGLPDLSRYTGVSIVDGLASVGSDSSFAYRAKIAETLGISDYKGSAGQNLEMIRKLGGKV', 'soluble fraction (log2)', -0.291),
  ('HMRKTIQDFLSSNKVDIAKLLTLALEKTKEDLYKNLSYNLTNKELEKLKLLIKKREQGIPFAYLS', 'soluble fraction (log2)', -0.0368),
  ('HMNTELFTKNLFNKLEVLLGEKNWKSKTAQLLNISSDAFYKKIRNESQLNLHELLLIKDTFKISIDALLDE', 'soluble fraction (log2)', -1.24),
  ('HMSEDTYNTLTKGTRVYNGVDYGAKYGYNPLYYFLNYNDLRIAYGADPAKLVEHYALFGIKENRVANRQIT', 'soluble fraction (log2)', -0.098),
  ('HMTAVAAEQQAQDAYRQTAANNLNEIQAKYKLPDSESDDFFTFAYERGFTQEDFIDIGLVDKIMGDYV', 'soluble fraction (log2)', 0.0927),
  ('HMEIRNLMPILSHFLNENDIKLSRESVNLVLDRASGNRENLNNELKKIHDYSFSNKIIDFETIKKLTNLG', 'soluble fraction (log2)', -0.194),
  ('HMLERKPVLVASRDLPALAVIGKDDLSVELLRTAPVGSYDRPEALLGKRVWVAVPAGSILSAATLEP', 'soluble fraction (log2)', -0.103),
  ('HMSDFKDIILKLRNEQGFTQEKLADVLGTSKSTVGMWEMGVRFPSKELYEAIADYFNVDIDYLYGRTDIR', 'soluble fraction (log2)', -0.966),
  ('HMINEVVSLRDVPSFIGKAKRDVIRIAEENNLKIKINGNGYVKEQTPNPGNKYKSNQEIKVFLEPG', 'soluble fraction (log2)', 0.0894),
  ('HMSQLTVGTVVTGNASLQTQGLKLPSFASGSRPASPNIGQMIWNSSDAKAQIWNGSEWDDVG', 'soluble fraction (log2)', -0.198),
  ('HMTSPQGIERFLASGVIEGVGKAMAARIVAVFGGQTLEIIEKQPHRLREVRGIGVKTAEKIHASYQEKA', 'soluble fraction (log2)', -0.81),
  ('HMDGIRLYPGLMIEHKNFGRGQVVSVNRERGTFTAFFGKNGTRTLTIQILKTDTVRPLASQKAGK', 'soluble fraction (log2)', 0.212),
  ('HMTKTFDSPEDADNDVLAKTLFQIFGVQSVYLKENFVTITKSNSVGWHTLMEKTGHTLEEHLKF', 'soluble fraction (log2)', 0.0987),
  ('HMFIGFLHQLKEAGVPVSIREYLDFLSGLDKGITNLNTNSFYHFARASLVKDERHYDRFDRTFSEFFEGAL', 'soluble fraction (log2)', -3),
  ('HMENSPLTHREAEVMRLMSEGKSNRAISEHLVISEKTVKNHVSSILQKMSVDDRTQAVLQAIKNGWVD', 'soluble fraction (log2)', 0.23),
  ('HMPKELAPYDILARYYLTVNNSKQSIALLEQYLDKAGSAPAALKAKLLLAGILYPSGNKERAEKLVEEVIK', 'soluble fraction (log2)', -0.465),
  ('HMKMDGESQRLLSLIKEQGGSLPIGDKSSPEAIYRLTQMSKKTFKMALGSLYKAKQVVLSPTEVRL', 'soluble fraction (log2)', -0.69);
